target: T1, human PDL1-Fc fusion protein (human); assay: ELISA, human PDL1-Fc coated 200 ng/well, anti-His HRP
T1 construct: also called human PDL1-Fc recombinant protein
T1 sequence (chain, as listed by the source limits assumed): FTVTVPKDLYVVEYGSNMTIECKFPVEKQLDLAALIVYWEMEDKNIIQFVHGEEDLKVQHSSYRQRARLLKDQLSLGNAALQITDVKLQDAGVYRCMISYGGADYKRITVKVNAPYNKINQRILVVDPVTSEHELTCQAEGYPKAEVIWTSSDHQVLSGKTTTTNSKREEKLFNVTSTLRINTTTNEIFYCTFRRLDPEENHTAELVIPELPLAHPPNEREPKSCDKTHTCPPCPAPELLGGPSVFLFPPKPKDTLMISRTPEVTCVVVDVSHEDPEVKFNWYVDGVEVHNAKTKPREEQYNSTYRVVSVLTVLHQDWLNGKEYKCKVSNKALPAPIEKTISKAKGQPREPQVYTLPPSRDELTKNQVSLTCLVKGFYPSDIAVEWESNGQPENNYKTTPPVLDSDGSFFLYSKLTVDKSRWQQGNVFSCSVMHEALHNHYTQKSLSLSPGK
Readout name: EC50 (mg/L)

Sample records with EC50:
[
  {
    "Binder": "PDL1-1v8 (VHH, Humanized PDL1-1, His-tagged) VHH: EVQLLESGGGLVQPGGSLRLSCAASGFTVSNSAVSWARQAPGKGLEWVSLIDSNRNTVYAQSVRGRFTISRDNSKNTVYLQMNSLRAEDTAVYYCAKGIWGSTLTGQGTTVTVSS",
    "Value reported": 0.0108
  },
  {
    "Binder": "PDL1-1v1 (VHH, Humanized PDL1-1, His-tagged, from 293-F) VHH: EVQLLESGGGLVQPGGSLRLSCAASGFTVSNSAVSWARQAPGKGLEWVSLIDSNRNTVYAQSVRGRFTISRDNSKNTVYLQMNSLRAEDTAVYYCAKGIWGSTLWGQGTTVTVSS",
    "Value reported": 0.0275
  }
]

a: PDL1-1v6 (VHH, Humanized PDL1-1, His-tagged) VHH: EVQLLESGGGLVQPGGSLRLSCAASGFTVSNSAVSWARQAPGKGLEWVSLIDSNRNTVYAQSVRGRFTISRDNSKNTVYLQMNSLKAEDTAVYYCAKGIWGSTLWGQGTTVTVSS
b: PDL1-1v3 (VHH, Humanized PDL1-1, His-tagged) VHH: QVQLLESGGGLVQPGGSLRLSCAASGFTVSNSAVSWARQAPGKGLEWVSLIDSNRNTVYAQSVRGRFTISRDNSKNTVYLQMNSLRAEDTAVYYCAKGIWGSTLWGQGTTVTVSS
From the items above, decide which of a and b has the lower EC50 reading. Pick one; state its label. b
(b: 0.0336 mg/L, a: 0.0505 mg/L)
